# testedOn: human GLP-1R (human, UniProt P43220 24-463)
# assayComment: cell-based or functional assay
Bridges are numbered along the chain shown (N, C = ends). Where no end group is shown, it is not given here. [ ]: non-standard residue; d: D form. staple K4 = not defined here; Aib = CC(C)(N)C(=O)O
readoutType: EC50 Creluc (nM)
Quick note: give the figure in nM, leave out the unit.

Consider the reported EC50 Creluc for these binders:
YXEGTFTSDYSIYKDKQAALKFVAWLLAGGPSSGAPPPS (staple K4 on Lys 14, 21; Aib 2; D-Ser 8, 11; Nle 20) [Conjugate 169] | 1.32
YXEGTFTSDYSIYKDKQAAXKFVNWLLAGGPSSGAPPPS (staple K5 on Lys 14, 21; Aib 2, 20) [Conjugate 141] | 0.01

Now, please, on to the next binder.
Query: EC50 Creluc; subject: Y[Aib]EGTFTSDYSIYKDKQAA[Aib]KFVNWLLAGGPSSGAPPPS (linker 14-21 via staple K4; reading uncertain) [Conjugate 142]
Reply: 0.02
